Reference source for all entries: ChEMBL document CHEMBL4308828

molecular target: Metabotropic glutamate receptor 2 (Homo sapiens, UniProt Q14416); experiment: Positive allosteric modulation of human mGluR2 expressed in human Chem1 cells assessed as increase in glutamate-induced intracellular calcium influx preincubated for 30 mins followed by glutamate addition by calcium-5 dye based fluorometric assay
Sequence (Q14416 whole entry): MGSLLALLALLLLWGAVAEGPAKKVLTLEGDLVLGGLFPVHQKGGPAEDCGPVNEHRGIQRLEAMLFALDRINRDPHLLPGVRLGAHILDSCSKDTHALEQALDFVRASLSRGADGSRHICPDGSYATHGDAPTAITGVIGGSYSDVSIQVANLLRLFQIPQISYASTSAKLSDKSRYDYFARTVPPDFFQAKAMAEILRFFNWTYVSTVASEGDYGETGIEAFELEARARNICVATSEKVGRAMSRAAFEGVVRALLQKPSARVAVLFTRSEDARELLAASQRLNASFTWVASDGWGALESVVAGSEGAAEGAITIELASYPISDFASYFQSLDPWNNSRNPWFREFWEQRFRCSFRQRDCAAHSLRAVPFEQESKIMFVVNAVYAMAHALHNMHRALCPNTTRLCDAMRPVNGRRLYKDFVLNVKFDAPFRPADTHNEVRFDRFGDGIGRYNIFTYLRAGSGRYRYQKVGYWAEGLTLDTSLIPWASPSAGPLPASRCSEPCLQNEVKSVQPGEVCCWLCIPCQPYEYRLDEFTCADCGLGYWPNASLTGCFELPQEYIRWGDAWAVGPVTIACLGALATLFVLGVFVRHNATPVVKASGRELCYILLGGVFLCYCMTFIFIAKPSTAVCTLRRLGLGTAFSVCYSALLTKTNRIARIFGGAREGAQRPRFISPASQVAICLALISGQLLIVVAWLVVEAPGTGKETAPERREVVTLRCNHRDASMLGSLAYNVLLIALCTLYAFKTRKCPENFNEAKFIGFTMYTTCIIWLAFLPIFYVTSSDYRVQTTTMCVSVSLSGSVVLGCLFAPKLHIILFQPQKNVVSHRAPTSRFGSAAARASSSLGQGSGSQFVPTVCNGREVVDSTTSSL
Measured Metric: EC50 (nM)

Past entries and their recorded results:
Problem: Look up EC50: Clc1ccc(Cn2nnc3c(Br)cccc32)cc1
Result: 17

Problem: Also check CCCCn1nnc2c(Br)cccc21
Result: 60

Problem: Also check COc1cccc2c1nnn2CC1CC1
Result: 400

Problem: Also check c1ccc(Cn2nnc3ccccc32)cc1
Result: 3000

Problem: Also check Brc1cccc2c1nnn2Cc1ccccc1
Result: 80

a. Brc1cccc2c1nnn2CC1CC1
b. Brc1ccc(Cn2nnc3c(Br)cccc32)cc1
Problem: Hi there, can you help? I need to know whether a or b has lower measured EC50. Refer to your chosen item by its label in the answer.
Result: b

P. CCn1nnc2c(Br)cccc21
Q. Fc1cc(Cl)ccc1-c1ccc(Cn2nnc3ccccc32)cn1
Problem: Hi there, can you help? I need to know whether P or Q has lower measured EC50. Refer to your chosen item by its label in the answer.
Result: Q

P. N#Cc1cccc2c1nnn2CC1CC1
Q. Fc1cccc(Cn2nnc3c(Br)cccc32)c1
Problem: Hi there, can you help? I need to know whether P or Q has lower measured EC50. Refer to your chosen item by its label in the answer.
Result: Q

1. Fc1ccc2c(c1)nnn2Cc1ccc(-c2ccc(Cl)cc2F)nc1
2. COc1cc(Br)c2nnn(CC3CC3)c2c1
3. FC(F)(F)c1cc(Br)c2nnn(CC3CC3)c2c1
Problem: Order by EC50, ascending. Ranked list of labels, please, in the requested order.
Result: 1, 3, 2
(1: 68 nM, 3: 140 nM, 2: 730 nM)

P. Clc1cc(Br)c2nnn(CC3CC3)c2c1
Q. c1ccc(-c2ccc(Cn3nnc4ccccc43)cc2)cc1
Problem: Sorting by EC50 in descending order, would P or Q appear first? Refer to your chosen item by its label in the answer.
Result: Q
